measured quantity: pIC50
Reminder that pIC50 means the negative base-10 logarithm of the concentration expressed in mol/L.

What is its pIC50 for UniProt:Q72874? Entry: `CC(C)CN(C[C@@H](O)[C@@H](NC(=O)O[C@@H]1CCOC1)Sc1ccccc1)S(=O)(=O)c1ccc(N)cc1`
4.78

What is its pIC50 for UniProt:Q72874? Entry: `CC(C)CN(C[C@H](O)[C@H](NC(=O)O[C@@H]1CCOC1)Sc1ccccc1)S(=O)(=O)c1ccc(N)cc1`
4.94

What is its pIC50 for UniProt:Q72874? Entry: `CC(C)CN(C[C@@H](O)[C@H](NC(=O)O[C@@H]1CCOC1)Sc1ccccc1)S(=O)(=O)c1ccc(N)cc1`
5.85

What is its pIC50 for UniProt:Q72874? Entry: `CC(C)CN(C[C@H](O)[C@@H](NC(=O)O[C@@H]1CCOC1)Sc1ccccc1)S(=O)(=O)c1ccc(N)cc1`
4.90
